Measurement Target: human FPRL2 (Homo sapiens, UniProt P25089)
Construct: expressed in transfected cells; host or cells: HEK293 (HEK293-hFPRL2-Gα16)
Sequence (P25089 whole entry): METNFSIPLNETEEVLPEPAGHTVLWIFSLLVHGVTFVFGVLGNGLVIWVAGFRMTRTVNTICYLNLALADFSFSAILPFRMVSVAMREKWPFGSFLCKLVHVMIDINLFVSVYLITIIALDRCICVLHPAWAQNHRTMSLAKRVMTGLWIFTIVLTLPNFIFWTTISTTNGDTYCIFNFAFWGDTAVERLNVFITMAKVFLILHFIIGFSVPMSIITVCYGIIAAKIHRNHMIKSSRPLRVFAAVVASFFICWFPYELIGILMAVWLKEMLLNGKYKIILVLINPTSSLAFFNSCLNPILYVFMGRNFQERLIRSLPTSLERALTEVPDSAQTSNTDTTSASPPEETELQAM
Protocol: Intracellular calcium measurements (FLIPR), agonistic activity in HEK293-hFPRL2-Gα16 cells
Format: cell-based
Test Settings: Fluo-4 calcium FLIPR, normalized to GLY14-Humanin 100 nM
pEC50: −log10 of the molar value.
Assay Readout: pEC50

In [3]: df
Out[3]:
                                   molecule  assay_readout  observed_result
0  O=C(NCCCCN1CCCC1)[C@H]1[C@H](C(=O)Nc2ccc(Br)cn2)[C@@H]2C=C[C@H]1C21CC1          pEC50             6.73
1  Cc1ccc(C)c(CNC(=O)[C@H]2[C@H](C(=O)NCCCCN3CCCC3)[C@H]3C=C[C@@H]2C32CC2)c1 (racemic)          pEC50             6.59

1 = O=C(NCCCCN1CCC1)[C@H]1[C@H](C(=O)Nc2ccc(Br)cc2)[C@@H]2C=C[C@H]1C21CC1
2 = COCCCNC(=O)[C@H]1[C@H](C(=O)Nc2ccc(Br)cc2)[C@@H]2CC[C@H]1C21CC1 (racemic)
Challenge: Which value of pEC50 is smaller, the one for 1 or the one for 2 ? Identify your selection by its label.
Response given: 2
(2: 5.16, 1: 6.70)

// data source = patent US8563714B2
